Listed here are molecules together with their documented T/C.
Test system: P388 leukemia ip, CD2F1 mice, survival T/C
Experiment: NCI In Vivo Anticancer Drug Screen. Data for tumor model P388 Leukemia (intraperitoneal) in CD2F1 (CDF1) mice
Settings: endpoint: median survival time; dose: 25.0 mg/kg/injection; schedule: Q01DX005 (ip); vehicle: Klucel (hydroxypropylcellulose) (HPC); higher = longer survival
Inconclusive results and toxic doses are left out.

molecule=CN(C)CCn1c2nc(=O)[nH]c(=O)c-2nc2ccccc21 assay_endpoint=T/C observed="101 % of control"
molecule=COC(=O)n1sc(SC)nc1=N assay_endpoint=T/C observed="114 % of control"

Identify the measured T/C of "CCN(CC)c1ccc(C(=N)c2ccc(N(C)C)cc2)cc1" for P388 leukemia ip, CD2F1 mice, survival T/C.
99 % of control

// same read-out, input: CC(C)(C)N1N=C2CCCC2[Si]1(C)C (stereo not drawn)
105 % of control

Next molecule up: O=C1CC2C(O)OC(O)C(C1)N2C(=O)OCC(Cl)(Cl)Cl (stereo not drawn)
114 % of control

How about "O=c1ccn(C2CCCCC2)c(=O)[nH]1" ?
91 % of control

Same for COc1cc(C2c3cc4c(cc3C(=O)C(C)C2C)OCO4)ccc1O (stereo not drawn)
98 % of control

Next up: "CC1=NN(C(C)(C)C)[Si](C)(C)C1"
96 % of control
